These entries and their values trace back to patent US9370516B2.

target: broad panel of receptors, transporters, ion channels, and enzymes; experiment: Selectivity against a broad panel
Value Type: IC50

Return reported IC50; argument: Cc1cc(-c2ccc3c(c2)CC[C@H]3N2CC3(CCN(C(=O)Cc4cn5cc(C)sc5n4)CC3)C2)ncn1
> 1000 nM

---

Biological target: patient GHSR1a (Homo sapiens, UniProt Q92847)
Sequence (Q92847 whole entry): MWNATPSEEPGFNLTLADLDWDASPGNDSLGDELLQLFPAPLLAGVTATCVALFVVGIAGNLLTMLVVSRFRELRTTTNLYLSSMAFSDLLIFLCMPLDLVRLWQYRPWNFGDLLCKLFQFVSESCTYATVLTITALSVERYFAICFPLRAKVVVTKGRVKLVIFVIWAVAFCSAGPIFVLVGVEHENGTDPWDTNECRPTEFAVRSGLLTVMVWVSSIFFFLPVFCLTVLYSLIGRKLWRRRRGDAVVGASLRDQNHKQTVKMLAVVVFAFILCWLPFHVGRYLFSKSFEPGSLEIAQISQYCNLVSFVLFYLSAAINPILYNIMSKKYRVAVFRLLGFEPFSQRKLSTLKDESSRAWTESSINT
Assay: biochemical
Settings: Human GHS-1aR Filter Motulsky Kd, Equilibrium 4.07 hours
Description: The SPA format was utilized for high throughput screening of test compounds and filter binding served for more comprehensive binding characterization. […] The mixture was incubated for 90 minutes at room temperature followed by transfer to a 0.3% PEI-treated, 96-well glass fiber filtration plate (Perkin Elmer, 6005174). […] The amount of receptor-ligand complex was determined by liquid scintillation counting using a 1450 Microbeta Trilux (Wallac).
Value Type: Kd (nM)
Answers are plain numbers, in nM.

Return reported Kd; argument: Cc1cc(-c2ccc3c(c2)CC[C@H]3N2CC3(CCN(C(=O)Cc4cn5cc(C)sc5n4)CC3)C2)ncn1 [Example 1]
3.04

---

molecular target: mouse GHSR1a (Mus musculus, UniProt Q99P50)
Sequence (Q99P50 whole entry): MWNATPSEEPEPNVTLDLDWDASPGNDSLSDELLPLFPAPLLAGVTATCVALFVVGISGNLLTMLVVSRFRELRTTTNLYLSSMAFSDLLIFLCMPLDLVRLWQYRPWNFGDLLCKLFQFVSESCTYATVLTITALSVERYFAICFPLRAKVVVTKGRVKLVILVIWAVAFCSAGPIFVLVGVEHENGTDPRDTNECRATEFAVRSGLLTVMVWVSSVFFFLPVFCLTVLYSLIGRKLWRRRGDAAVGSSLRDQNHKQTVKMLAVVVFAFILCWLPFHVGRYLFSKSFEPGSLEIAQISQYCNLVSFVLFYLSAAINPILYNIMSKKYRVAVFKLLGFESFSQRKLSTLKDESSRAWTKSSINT
Value Type: Ki

Return reported Ki; argument: Cc1cc(-c2ccc3c(c2)CC[C@H]3N2CC3(CCN(C(=O)Cc4cn5cc(C)sc5n4)CC3)C2)ncn1 [Example 1]
7.7 nM

---

molecular target: patient GHSR1a (Homo sapiens, UniProt Q92847); experiment: biochemical; conditions: human Kd via Patient Ghrelin Filter Binding Assay
Value Type: pKd
One number for each entry, as −log10 of the molar value.

What reported pKd corresponds to Cc1cc(-c2ccc3c(c2)CC[C@H]3N2CC3(CCN(C(=O)Cc4cn5cc(C)sc5n4)CC3)C2)ncn1 on patient GHSR1a (Homo sapiens, UniProt Q92847)?
8.52
